IC50: recorded values
STUDY SYSTEM: GABA-A receptor; anion channel
EXPERIMENT NOTES: Binding affinity measured by [3H]diazepam binding assay in rat

Below, 3 compounds whose answers are already recorded.
### Prompt Hello, please tell me recorded IC50 for this one: Cc1ncc2c(n1)-c1ccc(Cl)cc1C(c1ccccc1Cl)N(C)C2 (stereo unspecified)
### Response 25 nM

### Prompt Hello, please tell me recorded IC50 for this one: `Nc1ncc2c(n1)-c1ccc(Cl)cc1C(c1ccccc1Cl)=NC2`
### Response 2.6 nM

### Prompt Hello, please tell me recorded IC50 for this one: `[O-][N+]1=C(c2ccccc2Cl)c2cc(Cl)ccc2-c2ncncc2C1`
### Response 39 nM

***
### Prompt Hello, please tell me recorded IC50 for this one: Clc1ccc2c(c1)C(c1ccccc1Cl)NCc1cncnc1-2 (stereo unspecified)
### Response 54 nM

### Prompt Hello, please tell me recorded IC50 for this one: `Oc1ncc2c(n1)-c1ccc(Cl)cc1C(c1ccccc1F)=NC2`
### Response 9.6 nM

### Prompt Hello, please tell me recorded IC50 for this one: `CN(C)c1ncc2c(n1)-c1ccc(Cl)cc1C(c1ccccc1F)=NC2`
### Response 8.2 nM

### Prompt Hello, please tell me recorded IC50 for this one: `Fc1ccccc1C1=NCc2cnc(Cl)nc2-c2ccc(Cl)cc21`
### Response 5.3 nM

### Prompt Hello, please tell me recorded IC50 for this one: `Sc1ncc2c(n1)-c1ccc(Cl)cc1C(c1ccccc1Cl)=NC2`
### Response 270 nM

### Prompt Hello, please tell me recorded IC50 for this one: `CNC(=O)Cc1ncc2c(n1)-c1ccc(Cl)cc1C(c1ccccc1F)=NC2`
### Response 7.6 nM

### Prompt Hello, please tell me recorded IC50 for this one: `CN(C)CCCNc1ncc2c(n1)-c1ccc(Cl)cc1C(c1ccccc1F)=NC2`
### Response 2.3 nM

### Prompt Hello, please tell me recorded IC50 for this one: `CCOC(=O)Cc1ncc2c(n1)-c1ccc(Cl)cc1C(c1ccccc1F)=NC2`
### Response 20 nM

---

STUDY SYSTEM: GABA-A receptor; anion channel
EXPERIMENT NOTES: Binding affinity measured by [3H]diazepam binding assay in rat
Returns: string. Value is MET if measured IC50 is below 0.009 µM, and NOT MET if it is greater than or equal to it.

### Prompt Dear reviewer, please state whether `[O-][N+]1=C(c2ccccc2F)c2cc(Cl)ccc2-c2nc(S)ncc2C1` has IC50 strictly beneath 0.009 µM.
### Response NOT MET

### Prompt Dear reviewer, please state whether `Nc1ncc2c(n1)-c1ccccc1C(c1ccccc1)=NC2` has IC50 strictly beneath 0.009 µM.
### Response NOT MET

### Prompt Dear reviewer, please state whether `[O-][N+]1=C(c2ccccc2F)c2cc(Cl)ccc2-c2ncncc2C1` has IC50 strictly beneath 0.009 µM.
### Response NOT MET

### Prompt Dear reviewer, please state whether `CNc1ncc2c(n1)-c1ccc(Cl)cc1C(c1ccccc1F)=NC2` has IC50 strictly beneath 0.009 µM.
### Response MET

### Prompt Dear reviewer, please state whether CC1=NCC2CNC(c3ccccc3Cl)c3cc(Cl)ccc3C2=N1 (configuration not stated) has IC50 strictly beneath 0.009 µM.
### Response NOT MET

### Prompt Dear reviewer, please state whether `CSc1ncc2c(n1)-c1ccc(Cl)cc1C(c1ccccc1Cl)=NC2` has IC50 strictly beneath 0.009 µM.
### Response NOT MET

### Prompt Dear reviewer, please state whether `Cc1nc2c(c[n+]1[O-])C[N+]([O-])=C(c1ccccc1Cl)c1cc(Cl)ccc1-2` has IC50 strictly beneath 0.009 µM.
### Response NOT MET
